target: T1, endothelin A receptor (ETaR) (Homo sapiens (assumed), UniProt P25101); test: flow cytometry on cells; competition: unlabelled scFv at 0.01 to 316 nM against FITC-labeled wild-type anti-GPCR at L = 150 nM on ETaR-expressing CHO cells, 1 h at 4 °C; Ki = IC50/(1 + L/Kd); settings: one partner purified
T1 construct: endothelin A receptor (ETaR), a GPCR; plasmid and cells were gifts from Gmax Biopharm LLC; also called GPCR; ETaR-expressing CHO cells; source: CHO cells stably expressing and displaying ETaR (provided by Gmax Biopharm LLC); on cells, and in vesicles prepared from them
T1 sequence (P25101 21-427): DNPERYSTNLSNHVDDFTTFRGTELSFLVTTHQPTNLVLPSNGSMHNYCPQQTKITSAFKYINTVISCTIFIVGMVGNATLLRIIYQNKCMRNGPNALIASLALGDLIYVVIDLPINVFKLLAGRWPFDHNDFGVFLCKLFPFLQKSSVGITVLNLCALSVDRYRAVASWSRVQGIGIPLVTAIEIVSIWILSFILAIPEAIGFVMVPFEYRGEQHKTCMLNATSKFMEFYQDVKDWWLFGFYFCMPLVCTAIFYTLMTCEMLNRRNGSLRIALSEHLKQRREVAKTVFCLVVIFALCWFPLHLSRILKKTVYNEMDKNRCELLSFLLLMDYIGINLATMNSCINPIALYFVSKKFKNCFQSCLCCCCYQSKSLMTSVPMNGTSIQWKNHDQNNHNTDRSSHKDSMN
pIC50: −log10 of the molar value.
result_type: pIC50

anti-GPCR (ETaR) antibody 80H4, scFv-His, mutant T113A-V64M-N28Y (scFv, V domains shown, heavy-chain variable region as in m3; (G4S)3 linker; light-chain variable region as in m3; Combination of N28Y and T113A-V64M made by the authors; source: Expi293F, transfected, purified from supernatant (Ni-NTA); not shown: His tag, C-terminal, kept) VH: EVQLLESGGGLVQPGGSLRLSCAASGFTFSSYGMSWVRQAPGKGLEWVSAISTNGATAYYADSMKGRFTISRDNSKNTLYLQMNSLRAEDTAVYYCATEKGAMGYWGQGTLVAVSS VL: DIVMTQTPLSLSVTPGQPASISCRSSQYIVHSTGNTYLEWYLQKPGQSPQLLIYKVSNRFSGVPDRFSGSGSGTDFTLKISRVEAEDVGVYYCFQGSHFPFTFGQGTKVEIK ... 6.77

Entry source: paper PMC6719327
